Hi there, I'd appreciate the recorded IC50 for every entry that follows.
# experimentalSystem: UniProt O35678
# Sequence (O35678 whole entry): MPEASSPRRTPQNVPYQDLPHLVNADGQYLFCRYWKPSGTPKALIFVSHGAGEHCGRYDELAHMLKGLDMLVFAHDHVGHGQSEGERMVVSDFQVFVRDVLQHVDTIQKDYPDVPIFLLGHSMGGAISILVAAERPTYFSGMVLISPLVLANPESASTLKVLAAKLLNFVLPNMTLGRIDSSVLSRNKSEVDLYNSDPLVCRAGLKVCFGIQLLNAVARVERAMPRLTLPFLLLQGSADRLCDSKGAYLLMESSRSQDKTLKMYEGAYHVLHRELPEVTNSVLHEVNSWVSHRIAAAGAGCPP
# procedureText: biochemical
# experimentalConditions: mouse; in vitro competitive ABPP; read-out: Mouse (IC50 value, nM) MAGL

In the examples that follow, each entry is paired with its recorded IC50.
O=C(OC(C(F)(F)F)C(F)(F)F)N1CC2CN(Cc3ccc(Cl)cc3N3CCN4CCC[C@@H]4C3)CC2C1 (stereo partly shown) | 100 to 1000 nM
CCn1cc(CN2CC3CN(C(=O)OC(C(F)(F)F)C(F)(F)F)CC3C2)c(-c2ccc(N3CCCCC3)cc2)n1 (stereo not shown) | < 100 nM
CS(=O)(=O)N1CC2(CCN(c3ccccc3CN3CC4CN(C(=O)OC(C(F)(F)F)C(F)(F)F)CC4C3)C2)C1 (stereo not shown) | < 100 nM

--- query ---
Measured IC50, O=C(OC(C(F)(F)F)C(F)(F)F)N1CC2CN(Cc3cccc(Cl)c3N3CCC4(CCOCC4)C3)CC2C1 (stereo not shown) : < 100 nM
